Entries and their measured TGI follow.
test system: RPMI-8226 leukemia; assay: NCI tumour cell line growth inhibition, 48 h

{"compound": "COc1ccc(C(=O)c2cc(C)c(OC)c(C)c2)c(OC)c1OC(=O)C(Cl)Cl", "measured_on": "RPMI-8226 leukemia", "TGI": "27.8 µM"}
{"compound": "N#Cc1n[nH]n(-c2ccccc2)c1=O", "measured_on": "RPMI-8226 leukemia", "TGI": "> 100 µM"}
{"compound": "CCN1Cc2c(/C=C/c3ccccc3)nc3ccc(OC)cc3c2N(c2cccc(Cl)c2)C1", "measured_on": "RPMI-8226 leukemia", "TGI": "4.71 µM"}
{"compound": "O=C(NN1CCCCC1)c1cc2cc(CCl)ccc2oc1=O", "measured_on": "RPMI-8226 leukemia", "TGI": "59 µM"}
{"compound": "CCCCCC/C=C\\CCCCCCCCCc1cccc(OC)c1O", "measured_on": "RPMI-8226 leukemia", "TGI": "> 100 µM"}
{"compound": "CC(=S)NC=C(C(N)=O)C(N)=O", "measured_on": "RPMI-8226 leukemia", "TGI": "> 100 µM"}
{"compound": "O=C(O)C(C(F)(F)F)C(F)(F)F (tested in a mixture with another compound)", "measured_on": "RPMI-8226 leukemia", "TGI": "> 100 µM"}
{"compound": "COc1ncc(-c2ccc3ncnc(Nc4cccc(Cl)c4)c3c2)cc1NS(C)(=O)=O", "measured_on": "RPMI-8226 leukemia", "TGI": "9.24 µM"}
{"compound": "O=C(CC(=O)c1cccc2ccccc12)C(=O)Nc1nccs1", "measured_on": "RPMI-8226 leukemia", "TGI": "> 100 µM"}
{"compound": "CCOc1cc(CCNC)c2c(ccc3ccc(OC)c(O)c32)c1OC", "measured_on": "RPMI-8226 leukemia", "TGI": "> 100 µM"}
{"compound": "COc1ccc2c3c1OC1C4(CCC5C(C2)N(CC2CC2)CCC351)OCCO4 (centres undefined)", "measured_on": "RPMI-8226 leukemia", "TGI": "> 100 µM"}
{"compound": "COc1ccc2c(ccc3oc([N+](=O)[O-])cc32)c1", "measured_on": "RPMI-8226 leukemia", "TGI": "0.81 µM"}
{"compound": "CCOC(=O)/C=C(/C(=O)OCC)n1cc(C)c(=O)[nH]c1=O", "measured_on": "RPMI-8226 leukemia", "TGI": "5.68 µM"}
{"compound": "COC(=O)c1ccc(N/C=C(/C#N)c2ccsc2)cc1", "measured_on": "RPMI-8226 leukemia", "TGI": "> 100 µM"}
{"compound": "COc1ccccc1CNC(=O)/C=C/c1ccc(O)c(O)c1", "measured_on": "RPMI-8226 leukemia", "TGI": "> 100 µM"}
{"compound": "CCCCSCCC(N)P(=O)(O)O (centres undefined)", "measured_on": "RPMI-8226 leukemia", "TGI": "> 100 µM"}
{"compound": "Oc1ccc(Cl)cc1C1=Nn2c(COc3ccc4c(c3)CCCC4)nnc2SC1", "measured_on": "RPMI-8226 leukemia", "TGI": "19.3 µM"}
{"compound": "C=CCc1cccc(/C(O)=C/C(=O)/C=C/c2ccccc2Cl)c1O", "measured_on": "RPMI-8226 leukemia", "TGI": "36.5 µM"}
{"compound": "COc1cc2cc[n+](C)c(Cc3ccc(Oc4cc(Cc5c6cc(OC)c(OC)cc6cc[n+]5C)ccc4OC)cc3)c2cc1OC", "measured_on": "RPMI-8226 leukemia", "TGI": "> 100 µM"}
{"compound": "CNC(=O)OCC1=C(COC(=O)NC)CN(c2ccc(OC)cc2)C1", "measured_on": "RPMI-8226 leukemia", "TGI": "> 100 µM"}
{"compound": "CN(C)C(=S)/N=C(\\N)N(C)C", "measured_on": "RPMI-8226 leukemia", "TGI": "> 100 µM"}
{"compound": "Nc1ccc(Cc2ccc(N)c(C(=O)O)c2)cc1C(=O)O", "measured_on": "RPMI-8226 leukemia", "TGI": "> 100 µM"}
{"compound": "CC(=O)Nc1ccc(S(=O)(=O)N/N=C(\\C)CN2C(=O)c3ccccc3C2=O)cc1", "measured_on": "RPMI-8226 leukemia", "TGI": "> 100 µM"}
{"compound": "COc1cc(CO)cc2c1[nH]c1ccccc12", "measured_on": "RPMI-8226 leukemia", "TGI": "> 25 µM"}
{"compound": "C#CCOCn1cnc2c(N)ncnc21", "measured_on": "RPMI-8226 leukemia", "TGI": "> 100 µM"}
{"compound": "CCC1=NC(N/N=C/c2ccco2)=N/C1=C\\c1ccco1", "measured_on": "RPMI-8226 leukemia", "TGI": "> 100 µM"}
{"compound": "O=C(O)c1ccc2[nH]c(=O)oc2c1", "measured_on": "RPMI-8226 leukemia", "TGI": "> 100 µM"}
{"compound": "COc1ccc(-n2nc(C(=O)c3ccccc3)c3nn4c(=O)cc(-c5ccccc5)nc4nc32)cc1", "measured_on": "RPMI-8226 leukemia", "TGI": "> 100 µM"}
{"compound": "Oc1c(O)c(Cc2ccccc2)c(Cc2ccccc2)c(Cc2ccccc2)c1Cc1ccccc1", "measured_on": "RPMI-8226 leukemia", "TGI": "> 10 µM"}
